Would you kindly list MIC for each of these compounds?
Test system: Bradyrhizobium japonicum
Assay: microbe, parasite or virus in culture
Assay type: cell-based
Settings: 120 hrs
Answers are plain numbers, in µg/mL.

Please review the following examples before continuing.
- COMPOUND: "COc1ccc(NC(=O)C2(NC(=O)c3ccc(-n4cnnn4)cc3)CCCCC2)cc1"
  VALUE_REPORTED: 16
- COMPOUND: "COc1ccc2nc(NC(=O)CSc3nc4cc(C)ccc4[nH]3)sc2c1"
  VALUE_REPORTED: 64

Give its MIC value. Item: O=C1CCCC2=C1C(c1cccs1)Nc1ccc(C(=O)c3ccccc3)cc1N2 (stereo not drawn)
16

###

For each of the molecules below, state its pIC50.
Molecular target: SecA of Ca. L. asiaticus (Candidatus Liberibacter asiaticus, UniProt A0ABM5NFG5)
Assay: biochemical
Answers are plain numbers, as −log10 of the molar value.

Some solved cases for reference:
- MOLECULE: "CCc1nnc(NC(=O)c2cc3c([nH]c4ccccc43)c(C)n2)s1 [Compound C16]"
  VALUE_REPORTED: 6.60
- MOLECULE: "COc1ccc(NC(=O)C2(NC(=O)c3ccc(-n4cnnn4)cc3)CCCCC2)cc1 [Compound C18]"
  VALUE_REPORTED: 6.32
- MOLECULE: "O=C1CCCC2=C1C(c1cccs1)Nc1ccc(C(=O)c3ccccc3)cc1N2 (centres unmarked) [Compound C20]"
  VALUE_REPORTED: 6.36
- MOLECULE: "COc1ccc2nc(NC(=O)CSc3nc4cc(C)ccc4[nH]3)sc2c1 [Compound C19]"
  VALUE_REPORTED: 6.19

We now examine a further molecule.
Name the reported pIC50 value associated with the molecule COc1cc(-c2cc(-c3ccccc3)nc3sc(C(=O)O)c(N)c23)cc(OC)c1OC [Compound C17]
6.04

###

Would you mind telling me the reported MBC of each entry?
System: Rhizobium etli
Assay: microbe, parasite or virus in culture
Format: cell-based
Details: 24 hrs
Answers are plain numbers, in µg/mL.

- COMPOUND: "CCc1nnc(NC(=O)c2cc3c([nH]c4ccccc43)c(C)n2)s1 [Compound C16]"
  MBC / µg/mL: 16

The following compounds each have a reported value; give each one's MBC.
1. COc1ccc(NC(=O)C2(NC(=O)c3ccc(-n4cnnn4)cc3)CCCCC2)cc1 [Compound C18]
2. CN(C)[C@@H]1C(O)=C(C(N)=O)C(=O)[C@@]2(O)C(O)=C3C(=O)c4c(O)cccc4[C@@](C)(O)[C@H]3[C@H](O)[C@@H]12 [Oxytetracycline, reference compound]
3. COc1ccc(C2Nc3ccc(C(=O)c4ccccc4)cc3NC3=C2C(=O)CC(c2ccccc2)C3)cc1 (stereo not drawn) [SA5]
4. Nc1c(C(=O)O)sc2nc(-c3ccccc3)cc(-c3ccc(F)cc3)c12 [SA2]
5. O=C1CC(c2ccccc2)CC2=C1C(c1ccc(O)cc1)Nc1ccc(C(=O)c3ccccc3)cc1N2 (stereo not drawn) [SA6]
6. Cc1cc([C@H]2Nc3ccc(C(=O)c4ccccc4)cc3NC3=C2C(=O)CC(C)(C)C3)cc(C)c1O [SA9]
7. O=C1CCCC2=C1[C@H](c1ccccc1)Nc1ccc(C(=O)c3ccccc3)cc1N2 [SA4]
8. COc1ccc(N(C(=O)c2ccc(-n3cnnn3)cc2)C2(C(=O)Nc3ccccc3C)CCCCC2)cc1 [SSC11]

16
4
16
32
32
16
16
32

###

System: Bradyrhizobium japonicum
Assay: microbe, parasite or virus in culture
Assay type: cell-based
Conditions: 120 hrs
MEASURED_METRIC: MIC
Hi, when you answer, please include the unit after the number. Thanks!

Take a look at these entries with their results.
- COMPOUND: "O=C1CC(c2ccccc2)CC2=C1C(c1cccs1)Nc1ccc(C(=O)c3ccccc3)cc1N2 (stereo not drawn)"
  MIC: "32 µg/mL"
- COMPOUND: "O=C1CC(c2ccccc2)CC2=C1C(c1ccc(O)cc1)Nc1ccc(C(=O)c3ccccc3)cc1N2 (stereo not drawn)"
  MIC: "32 µg/mL"

For the next question, use this compound.
# get_value(readout='MIC', item= [H]/N=C(/N)N[C@H]1[C@H](O)[C@@H](O)[C@H](O[C@@H]2O[C@@H](C)[C@](O)(C=O)[C@H]2O[C@@H]2O[C@@H](CO)[C@H](O)[C@@H](O)[C@@H]2NC)[C@@H](N/C(N)=N\[H])[C@@H]1O [Streptomycin, reference compound] )
32 µg/mL

###

Test system: Xanthomonas citri
Experiment: microbe, parasite or virus in culture
Format: cell-based, Xanthomonas citri subsp. citri
MEASURED_METRIC: MBC (µg/mL)
One number for each entry, in µg/mL.

Look over these answered cases.
- COMPOUND: "COc1ccc(N(C(=O)c2ccc(-n3cnnn3)cc2)C2(C(=O)Nc3ccccc3C)CCCCC2)cc1"
  VALUE_REPORTED: 64
- COMPOUND: "O=C1CC(c2ccccc2)CC2=C1C(c1ccc(O)cc1)Nc1ccc(C(=O)c3ccccc3)cc1N2 (centres unmarked)"
  VALUE_REPORTED: 128
- COMPOUND: "COc1ccc(C2Nc3ccc(C(=O)c4ccccc4)cc3NC3=C2C(=O)CC(c2ccccc2)C3)cc1 (centres unmarked)"
  VALUE_REPORTED: 128
- COMPOUND: "COc1ccc2nc(NC(=O)CSc3nc4cc(C)ccc4[nH]3)sc2c1"
  VALUE_REPORTED: 64
- COMPOUND: "CCc1nnc(NC(=O)c2cc3c([nH]c4ccccc43)c(C)n2)s1"
  VALUE_REPORTED: 32

// batch mode: one MBC value per listed entry
1. CCOc1ccc(C2Nc3ccc(C(=O)c4ccccc4)cc3NC3=C2C(=O)CCC3)cc1 (centres unmarked)
2. CC(C)[C@H](NC(=O)c1c(F)cccc1F)C(=O)Nc1ccc(-n2cnnn2)cc1
3. COc1ccc(NC(=O)C2(N(C(=O)c3ccc(-n4cnnn4)cc3)c3ccc(OC)cc3)CCCCC2)cc1

[64, 128, 64]

###

Tested on: Liberibacter crescens
Test: microbe, parasite or virus in culture
Format: cell-based
Conditions: 120 h
MEASURED_METRIC: MIC (µg/mL)
Give bare numbers, in µg/mL.

- MOLECULE: "O=C1CC(c2ccccc2)CC2=C1C(c1ccc(O)cc1)Nc1ccc(C(=O)c3ccccc3)cc1N2 (stereo not drawn)"
  RESULT_UNITS: "µg/mL"
  MIC: 32
- MOLECULE: "Cc1cc([C@H]2Nc3ccc(C(=O)c4ccccc4)cc3NC3=C2C(=O)CC(C)(C)C3)cc(C)c1O"
  RESULT_UNITS: "µg/mL"
  MIC: 32
- MOLECULE: "CCc1nnc(NC(=O)c2cc3c([nH]c4ccccc43)c(C)n2)s1"
  RESULT_UNITS: "µg/mL"
  MIC: 16
- MOLECULE: "COc1ccc(NC(=O)C2(N(C(=O)c3ccc(-n4cnnn4)cc3)c3ccc(OC)cc3)CCCCC2)cc1"
  RESULT_UNITS: "µg/mL"
  MIC: 32
- MOLECULE: "O=C1CCCC2=C1C(c1cccs1)Nc1ccc(C(=O)c3ccccc3)cc1N2 (stereo not drawn)"
  RESULT_UNITS: "µg/mL"
  MIC: 32
- MOLECULE: "COc1ccc(NC(=O)C2(NC(=O)c3ccc(-n4cnnn4)cc3)CCCCC2)cc1"
  RESULT_UNITS: "µg/mL"
  MIC: 16
- MOLECULE: "COc1ccc(N(C(=O)c2ccc(-n3cnnn3)cc2)C2(C(=O)Nc3ccccc3C)CCCCC2)cc1"
  RESULT_UNITS: "µg/mL"
  MIC: 32
- MOLECULE: "CN(C)[C@@H]1C(O)=C(C(N)=O)C(=O)[C@@]2(O)C(O)=C3C(=O)c4c(O)cccc4[C@@](C)(O)[C@H]3[C@H](O)[C@@H]12 [Oxytetracycline, reference compound]"
  RESULT_UNITS: "µg/mL"
  MIC: 8

Could I get MIC for every one of these entries?
1. O=C1CC(c2ccccc2)CC2=C1C(c1cccs1)Nc1ccc(C(=O)c3ccccc3)cc1N2 (stereo not drawn)
2. Nc1c(C(=O)O)sc2nc(-c3ccccc3)cc(-c3ccc(F)cc3)c12

[32, 32]

Batch of 6 molecules: report MIC for each.
1. CCOc1ccc(C2Nc3ccc(C(=O)c4ccccc4)cc3NC3=C2C(=O)CCC3)cc1 (stereo not drawn)
2. COc1ccc(C2Nc3ccc(C(=O)c4ccccc4)cc3NC3=C2C(=O)CC(c2ccccc2)C3)cc1 (stereo not drawn)
3. [H]/N=C(/N)N[C@H]1[C@H](O)[C@@H](O)[C@H](O[C@@H]2O[C@@H](C)[C@](O)(C=O)[C@H]2O[C@@H]2O[C@@H](CO)[C@H](O)[C@@H](O)[C@@H]2NC)[C@@H](N/C(N)=N\[H])[C@@H]1O [Streptomycin, reference compound]
4. COc1ccc2nc(NC(=O)CSc3nc4cc(C)ccc4[nH]3)sc2c1
5. CC(C)[C@H](NC(=O)c1ccccc1)C(=O)Nc1cccc(-n2cnnn2)c1
6. COc1cc(-c2cc(-c3ccccc3)nc3sc(C(=O)O)c(N)c23)cc(OC)c1OC

32
16
32
16
16
32

State recorded MIC for all listed molecules.
1. O=C1CCCC2=C1[C@H](c1ccccc1)Nc1ccc(C(=O)c3ccccc3)cc1N2
2. CC(C)[C@H](NC(=O)c1c(F)cccc1F)C(=O)Nc1ccc(-n2cnnn2)cc1

1: 32; 2: 32
